Where do these numbers come from? They come from PubChem BioAssay AID1845203.

tested on: G-401 tumor spheroids, viability % test/control; assay: Anticancer human tumor G-401 cell line growth inhibition; conditions: second compound 100 µM; first compound 10 µM; active compounds read low; spheroids with HUVEC and MSC;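 note: spheroids exposed to compound for 7 days; 100% = DMSO vehicle-treated spheroids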
So I've got a bunch of molecules here, and I need their viability, T/C values.
Numbers only, in %.

Look up viability, T/C for the entries below, preserving their order.
1. CC1COCCN1c1cc(-c2ccnn2C)c2ccnc(-c3ccn[nH]3)c2n1 (stereo unspecified) + Cn1nnc2c(C(N)=O)ncn2c1=O
2. [2H]c1nc(C)nc([2H])c1-c1cc(NC[C@@H](C)c2cccc3c(C(=O)NC)ccnc23)ncn1 + Cn1nnc2c(C(N)=O)ncn2c1=O

### Response
[12, 86.5]

State the recorded viability, T/C for every item in the following list.
1. CC(C)n1c(=O)n(C)c2cnc3cc(F)c(-c4ccc(OCCCN5CCCCC5)nc4)cc3c21 + Cn1nnc2c(C(N)=O)ncn2c1=O
2. COc1cc(C)[nH]c(=O)c1CN1CCc2c(Cl)cc(C(OC)C3COC3)c(Cl)c2C1=O (stereo unspecified) + Cn1nnc2c(C(N)=O)ncn2c1=O
3. Cc1cc(C)c(CNC(=O)c2cc(-c3ccc(CN4CCOCC4)cc3)cc3c2cnn3C2CCCC2)c(=O)[nH]1 + Cn1nnc2c(C(N)=O)ncn2c1=O

### Response
80.1
24.7
46.9

Measured viability, T/C for this entry COc1ccc([C@@H](O)c2cc(-c3ncnc4cc(N5CCOCC5)ccc34)c(F)cc2Cl)nn1 + Cn1nnc2c(C(N)=O)ncn2c1=O on G-401 tumor spheroids, viability % test/control: 8.51
